Values were extracted from paper PMC5564600.

biological target: panel of 442 kinases (Homo sapiens, UniProt P22455); construct: purchased Ambit Biosciences (scanMAXX KINOMEscan); experiment: biochemical; format: binding; conditions: FGFR4; 1 µM; read-out: % of control at 1 µM
Sequence (P22455 22-802): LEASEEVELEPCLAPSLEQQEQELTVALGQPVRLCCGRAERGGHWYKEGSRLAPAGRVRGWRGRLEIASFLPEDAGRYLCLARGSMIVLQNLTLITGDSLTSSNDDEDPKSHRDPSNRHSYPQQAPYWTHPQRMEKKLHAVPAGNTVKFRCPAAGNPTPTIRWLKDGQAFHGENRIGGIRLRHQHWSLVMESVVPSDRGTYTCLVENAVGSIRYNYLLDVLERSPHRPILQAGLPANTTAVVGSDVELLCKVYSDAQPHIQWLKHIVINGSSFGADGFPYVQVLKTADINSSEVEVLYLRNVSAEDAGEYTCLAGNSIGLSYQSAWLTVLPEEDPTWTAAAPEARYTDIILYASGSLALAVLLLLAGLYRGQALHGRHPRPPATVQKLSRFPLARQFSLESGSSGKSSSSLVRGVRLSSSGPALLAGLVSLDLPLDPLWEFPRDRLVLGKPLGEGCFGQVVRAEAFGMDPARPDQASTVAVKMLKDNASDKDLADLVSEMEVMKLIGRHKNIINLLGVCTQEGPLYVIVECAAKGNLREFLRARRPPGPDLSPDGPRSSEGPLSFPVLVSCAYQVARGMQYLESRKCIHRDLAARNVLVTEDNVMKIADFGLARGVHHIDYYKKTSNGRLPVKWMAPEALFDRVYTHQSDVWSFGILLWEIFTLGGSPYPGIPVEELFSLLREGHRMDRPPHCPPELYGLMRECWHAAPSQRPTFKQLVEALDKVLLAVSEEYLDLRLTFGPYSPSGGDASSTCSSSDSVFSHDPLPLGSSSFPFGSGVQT

{"MOLECULE": "Nc1cc(C(F)(F)F)c(-c2cc(N3CCOCC3)nc(N3CCOCC3)n2)cn1 [Buparlisib]", "TGT": "panel of 442 kinases (Homo sapiens, UniProt P22455)", "remaining activity at 1 µM": "100%"}
{"MOLECULE": "FC(F)c1nc2ccccc2n1-c1nc(N2CCOCC2)nc(N2CCOCC2)n1 [ZSTK474]", "TGT": "panel of 442 kinases (Homo sapiens, UniProt P22455)", "remaining activity at 1 µM": "100%"}
{"MOLECULE": "COc1ncc(-c2ccc3nccc(-c4ccnnc4)c3c2)cc1NS(=O)(=O)c1ccc(F)cc1F [Omipalisib]", "TGT": "panel of 442 kinases (Homo sapiens, UniProt P22455)", "remaining activity at 1 µM": "100%"}
{"MOLECULE": "Cn1c(=O)n(-c2ccc(C(C)(C)C#N)cc2)c2c3cc(-c4cnc5ccccc5c4)ccc3ncc21 [Dactolisib]", "TGT": "panel of 442 kinases (Homo sapiens, UniProt P22455)", "remaining activity at 1 µM": "89%"}
